# experiment-description: label from the status in PepcDB records
endpoint: protein production

// solved cases for protein production follow
[ask] Name the recorded protein production of the item MRGGGILDYIGYFLVAIIVIFVVVKLLEWPIKMLVKLIINGVIGAIMLFALNIFGKYIGISIGINIVTALIAGIFGIPGVIFLVILKFIM in your answer.
[reply] failed

[ask] Indicate its recorded protein production; the sequence in question is MSENMVNLPDSLYEDYSKLKLTSPSNASSSSSAPPPRLSVVAHPTVEMIIQWVCDIHKPKSYMSDFALHNLAYHRNDFEFLPSLLWESKNTVYIMLQEVFEAYRHLAGHISLRLFPHPLNPLRVYNVFLLFQSMACHPDTSRQFLRAKMPNYFYPLMDTGLIDKSDECMRLAALGVIAHMLKASEDGAVNRYLMESGVVGFCVKPIEFGSTETKKVALYILDKIMSTDQGLYYCCVLADRFYVIDELLKKVLFYLSNMVRPPSSLFSLVTGCYVKLSQNSRARNGIRRYTPFLLFDGTFSRLYAEDPVAANNRIQLLQNLDN
[reply] failed

[ask] Given the sequence MFKVGPIGSKQYYDKSWEEKGRNMISIFGILVHDGHVKANIQVRLNDDEYVTGLSGIFWERKVTSLTFHTNQGKHGPFCNGTGYSSSYMADYKKEIDVKIRDRREFGGFFGSFDDEFDGLTSIGIYVYPTYDNKPTLNQAWDPLYAFAHNQIPTIADGIPVMHIRYKPKLKDRIFSKLDFKRAMLCLIKVFLD , write its reported protein production.
[reply] failed

[ask] Find the measured protein production of TEASSLVGKLETDVEIKASADKFHHMFAGKPHHVSKASPGNIQGCDLHEGDWGTVGSIVFWNYVHDGEAKVAKERIEAVEPDKNLITFRVIEGDLMKEYKSFLLTIQVTPKPGGPGSIVHWHLEYEKISEEVAHPETLLQFCVEVSKEIDEHLLAEE and report it.
[reply] not failed

[ask] Supply measured protein production of MCLSIPSQVVAVDNERQSVTVDTLGVRRDVSSHLMTEPLAIGDYVLIHIGFVMNKIDRNDALQSLELYQEIVSKLENETTH in your reply.
[reply] not failed

[ask] Return protein production (reported value) for this sequence: MSEDLMDLSPEEGIERFLRHREPSVRESTMRNAKTRLRFFNEWCEERDIENLNNLTGRDLADFVAWRRGDIAALTLQKQLSTIREALRYWADIEGVDDGLAEKVHAPELPDGAESREVHLSADRAHQILDFLHDYRYASRDHVVFLILWKTAMRRSALRSLDVDDLRPDDYALVLEHRIDEGTKLKNGEDGERWVYLGPSDYQVVDDYLDNPDRYERTDDYGRKPLITSQHGRPAGDTIYKWVNKLTQPCVLNGCPHDADPSDPSTCEALGSRAAHSKCPSSRSPHGLRRGSITYHLNSDVSPEIVSERCDVSLEVLYEHYDVRTNQEKMAVRKKQLERI
[reply] failed

Others:
[ask] Identify measured protein production corresponding to LRKSEERWQLAIVGTDEAIWDWDILTNHTYRSDRWFEMLGYERHEMSTFDDEWSIRIHPDDYNRVMAAQAAYLRREVPVYYTEYRLRCKDGNYKWFRSRAKGVWDEQGNPIRLVGSLGDITGRKSIELD
[reply] not failed

[ask] Give the reported value of protein production for this record: MAPLNYKTITSRSILSKVLVRATQQWPTDKTLNKQLSELYGAYVNSFVSKFKDKHVITISLEVVNEKFLKDKTPLFEKGLDTLKEIIWNPLIKDRCFDHTYVAQEKSLLSKKLEAMEDNKAQYSFLQLMNYMFKQEPYRYIATGQLEQIPQVTSESLYDTYLSMVQNDDCAIYVVGNINKEEVTQLILDKFAIKPFYLENKESTEITPSFDQPQYIIEKDDVDQAKLNLGYRFPSYYGKSNYYAFIVLNMMFGGDPSSVLFNEVREKQSLAYSIHSQIDGKNGFLFVLSGVSAEKYEQAKDTVIKEFDKIKNGDFDSNKIELAKKIIISHRHEASDRPKSIIEILHNQLLLNRQQTDQDFINAVNQVTKKDVIKLANEAVLDTIYVLTKGDQH
[reply] failed

[ask] Query protein production for MGSMLLNGAKMKYGNLSLKCMVQNQKALNFYLSQGFEIVSQVDDELGGYYYMSFVAQT
[reply] failed

[ask] For the sequence MHAPDALPGCAPVSPAPGYHGAPAVAGHAPTLGVTASMSSITLFQAPPPEAIQSQIQQMVVDYITDVSAVAIAPSNPLYNLYQYGVGYEVHLYLQAMDGSRGIAVELVVATDPQAPDQVLGFTLYLPVKDDPQACAVAYMAVLQGHRRQGIARQMLQAMLARYPHAELACNVAKVGCFEALGFQLLGARGPQVLMNTRDHGSDGLLAVLDVVTIYQSVEVRQIHTYLLAQHGRKAMLEAEKKRDRQLDQMTRQAQALVRERLGEAALYRSRAPQLIN , report protein production.
[reply] failed

[ask] // fetch protein production given entry MSSQLNHGTLPKISIVTPSYNQAQYLEATMRSILDQGYPDLEYIVMDGGSTDGSTEIIQKYSDRLTYWESAPDKGQADAIFRGFERATGEIFCYVNSDDLLLPGSLEMVGRWFREHPDEEWVVGGTILIDGLGIPIIRSRRGLPEADLGVKVTFKRLLLHNCGGFHQPASFWRRSAFEQAGGFDRTLRFCFDYDLFFRLAKRRPSGRIRSFLAAFRYHPASKTSTLESVFREENETLWRRYGRYLYSENQIRNFAHKQTTRDMWNNRIIKLGFYLKILNVSNAIGSLEHHHHHH
[reply] not failed

[ask] Consider the sequence MIYRKATEKDIAQLVELRKKQLEDEGIAPINNIDTELTHFFELSFKKNSFISWISEEDNEIIATSGVCFYKYPPSYLNPSGKVAYITNMYTKYEYRSRGIALALLKLVILEAKKRDYLFLRLHASDMGRPIYEEIGFKPFDDFMEMNLSLNRNGELEHHHHHH and give its recorded protein production.
[reply] not failed

[ask] Specify protein production for DGVRLLEELGAINAEAKDAKKRLTSIGRQLARLPIDPRLARMVLEAPKYGALKEVMIIAAALSIQDPRERPSDKQQSSDDKHRRFFHEESDFLTFV and stop.
[reply] failed

[ask] Please indicate protein production recorded for MQIGKVTGSLWATRKDEKLNGLKLLLVEITDEVEDKRHSIVAADNAGAGNGDLVLVTTGSAARASTGDNTIPVDACIVGIIDSVERYGLEHHHHHH
[reply] failed
